biological target: TFPI (human TFPI-1α), as coated or added in the ELISA and model assays (human), P10646; experiment: ELISA; conditions: modification not given
Quantity kind: pIC50
pIC50 here: minus log base 10 of the concentration, concentration in moles per litre.

Ask: Can you share its pIC50? I mean this binder: FQSKGNVFVTGYFARLRAKL [JBT0720]
Reply: 7.57
